Test: Novel Modifiers of Survival Motor Neuron (SMN) Protein: Gene Identification via Genome-wide siRNA Screen;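 also: luminescence tracks full-length SMN protein made from the SMN2 reporter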
Settings: HEK293T SMN2-luciferase reporter, siRNA knockdown, 72 h; actives lie on both sides
About 1,400 (4.5%) of roughly 31,000 sequences were called active.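 The calls were made as follows: active = median seed-adjusted z-score above 1 or below -1; inactive = the rest.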 This is one part of a sample in which actives are shown more often than they occur.
Hi there, use one of these labels in your reply, thanks! active, inactive

Problem: Hi, do you know how GCUUUAGAAUACAUACCAATT against IFIT2 came out in this test?
Solution: inactive

Problem: What did this assay record as the result for CCCUCUCACCAUUACUUCATT against CRYAB ?
Solution: inactive

Problem: # fetch the recorded call for CACGAAAUCAUGCAAAUCATT against RPL17 here
Solution: inactive

Problem: Record request — test call for GUCCCGAUCUGUGCUCUGATT against DUSP2
Solution: inactive

Problem: Which outcome was entered for the sequence GCUUUCUACAAGUAUAAGATT against ERO1LB in this test?
Solution: inactive

Problem: How did this test come out for GGAGGUACGUGGAAAAGCATT against ORC3L ?
Solution: inactive

Problem: Could you please tell me the result logged for AGACCAUCGCAGAGACAGATT against SLC31A2 in this assay?
Solution: inactive

Problem: How was GAAAGAUGUUGGGAAUAAATT against ST6GAL2 classified in this test?
Solution: inactive

Problem: Assay result, entry GGUAUACACUGAAUAUCCUTT against LCP1 — outcome?
Solution: inactive

Problem: Any idea what this test logged for ACAAUACCCUCAGACUGAATT against NMUR1 ?
Solution: inactive

Problem: Hello, I am checking results. What call was entered for CCUCAGUGUGGGUAUAAGATT against HIF1A ?
Solution: inactive

Problem: What did this assay record as the result for GGAGCUCAUUUGACAUGUATT against KIR2DL5B ?
Solution: active

Problem: Dear all, I need the recorded test outcome for GCACCUUGCAGGAUUGGAATT against PEAR1 , thank you.
Solution: inactive

Problem: Hey, what did the test say about CAUCAUGACAUGUAUGAUUTT against PAFAH1B3 ?
Solution: inactive

Problem: Name the outcome recorded for GGAUCGAGUUUGAUAACGATT against ITGA6 in the assay.
Solution: inactive

Problem: Outcome? CAAGGACAAAUUUCCCGUUTT against HOXD8
Solution: inactive

Problem: Which result was noted for this sequence in the test: CAGCAAACCUUUGACCAGATT against U2AF2
Solution: active

Problem: Tell me the recorded outcome of this test for CCUACUAUGAUGUUAGUAATT against SCGN .
Solution: inactive

Problem: Short answer needed: outcome of this test for GGAUGAUUUAGAAUUGUCATT against ATP6V0C ?
Solution: inactive

Problem: Short answer needed: outcome of this test for UCCUAACCUCAGAAACUGATT against CAPS ?
Solution: active

Problem: How was UCACAGACGAGGCAUUUAATT against FTCD classified in this test?
Solution: inactive

Problem: Query: recorded result category for CCGUCGAAUUUGAAGGUGATT against SULF1 in this test
Solution: inactive

Problem: Recorded test call requested for CCACUUCUCCACACCUUGATT against NR4A1
Solution: inactive

Problem: Assay outcome for GUCAUUUCUUUACCCAAGATT against NUDT5 : what was it?
Solution: inactive

Problem: Tell me the assay call for GAAUUUUGAUGUCAUACGATT against DTNB please.
Solution: inactive
